Exercise: state measured % inhibition at 100 µM for each of the binders provided.
- Tested on: T1, Coagulation Factor Xa, from uman plasma (human, UniProt P00742 41-179; P00742 235-488, limits assumed)
- T1 construct: purified natural enzyme, bought; also called FXa
- T1 sequence (P00742 41-179 limits assumed, chain 1 of 2): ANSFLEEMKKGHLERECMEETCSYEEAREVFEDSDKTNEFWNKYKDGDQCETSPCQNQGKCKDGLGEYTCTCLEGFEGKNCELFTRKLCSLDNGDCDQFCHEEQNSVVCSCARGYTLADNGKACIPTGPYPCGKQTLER
- T1 sequence (P00742 235-488 limits assumed, chain 2 of 2): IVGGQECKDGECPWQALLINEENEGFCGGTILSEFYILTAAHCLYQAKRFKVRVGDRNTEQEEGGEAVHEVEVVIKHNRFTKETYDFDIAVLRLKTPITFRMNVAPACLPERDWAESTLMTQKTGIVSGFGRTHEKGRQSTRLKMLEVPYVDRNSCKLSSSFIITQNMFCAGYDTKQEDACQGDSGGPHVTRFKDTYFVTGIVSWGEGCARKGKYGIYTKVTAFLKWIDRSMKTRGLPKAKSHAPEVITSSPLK
- Measurement notes: enzyme inhibition, pNA substrate
Response body: numeric value in %, unit text excluded.

[in] Reported % inhibition at 100 µM, binder XCTASIPPQCY (HELM PEPTIDE1{[Nle].C.T.A.S.I.P.P.Q.C.Y.[dP].Q}$PEPTIDE1,PEPTIDE1,2:R3-10:R3|PEPTIDE1,PEPTIDE1,1:R1-13:R2$$$V2.0; SMILES CCCC[C@@H]1NC(=O)[C@H](CCC(N)=O)NC(=O)[C@H]2CCCN2C(=O)[C@H](Cc2ccc(O)cc2)NC(=O)[C@@H]2CSSC[C@H](NC1=O)C(=O)N[C@@H]([C@@H](C)O)C(=O)N[C@@H](C)C(=O)N[C@@H](CO)C(=O)N[C@@H]([C@@H](C)CC)C(=O)N1CCC[C@H]1C(=O)N1CCC[C@H]1C(=O)N[C@@H](CCC(N)=O)C(=O)N2, also called Ex. 123) [Example 123] : ____
[out] 0

[in] Now consider XCTASIPPQCY (HELM PEPTIDE1{[Nle].C.T.A.S.I.P.P.Q.C.Y.[dP].F}$PEPTIDE1,PEPTIDE1,2:R3-10:R3|PEPTIDE1,PEPTIDE1,1:R1-13:R2$$$V2.0; SMILES CCCC[C@@H]1NC(=O)[C@H](Cc2ccccc2)NC(=O)[C@H]2CCCN2C(=O)[C@H](Cc2ccc(O)cc2)NC(=O)[C@@H]2CSSC[C@H](NC1=O)C(=O)N[C@@H]([C@@H](C)O)C(=O)N[C@@H](C)C(=O)N[C@@H](CO)C(=O)N[C@@H]([C@@H](C)CC)C(=O)N1CCC[C@H]1C(=O)N1CCC[C@H]1C(=O)N[C@@H](CCC(N)=O)C(=O)N2, also called Ex. 167) [Example 167] and answer again.
[out] 19.6

Where these numbers come from: patent US20140213531A1
